# study-system: benzodiazepine receptor
# method-description: benzodiazepine receptor bonding test using [^3 H] flunitrazepam as radioligand (FNB)
# Type: binding
# test-parameters: [^3 H] flunitrazepam as radioligand; read-out: value in the benzodiazepine receptor bonding test
observation-type: IC50

Entry under test: Cc1nnc2n1-c1sc3c(c1C(c1ccccc1Cl)=NC2)CCCC3 [Compound (A), reference compound] . Its IC50 was 21 nM

Entry under test: Cc1nnc2n1-c1sc3c(c1C(c1ccccc1Cl)=NC2)CCNC3 [Compound (B), reference compound] . Its IC50 was 35 nM

----------
# Test system: PAF-induced aggregation of human thrombocytes
# method-description: PAF-induced aggregation of human thrombocytes in vitro (inhibition of blood platelet aggregation)
# Type: cell-based
# test-parameters: Homo sapiens, read-out: IC50 value PAF
observation-type: IC50
Write down the value, and be sure its unit follows.

Entry under test: Cc1nnc2n1-c1ccc(Cl)cc1C(c1ccccc1)=NC2 [Alprazolam, reference compound] . Its IC50 was 14000 nM

Entry under test: Cc1nnc2n1-c1sc3c(c1C(c1ccccc1Cl)=NC2)CC(C(=O)N1CCOCC1)CC3 (stereo not shown) . Its IC50 was 500 nM

Entry under test: CCN(CC)C(=O)C1CCc2c(sc3c2C(c2ccccc2Cl)=NCc2nnc(C)n2-3)C1 (stereo not shown) . Its IC50 was 3300 nM

Entry under test: Cc1cnc2n1-c1sc3c(c1C(c1ccccc1Cl)=NC2)CC(Cn1cncn1)CC3 (stereo not shown) . Its IC50 was 400 nM

----------
# study-system: benzodiazepine receptor
# method-description: benzodiazepine receptor bonding test using [^3 H] flunitrazepam as radioligand (FNB)
# Format: binding
# test-parameters: [^3 H] flunitrazepam; racemate tested unless otherwise noted; read-out: IC50 value FNB (flunitrazepam bonding test)
Kindly state IC50 for each of the entries shown.

Entry under test: CCN(CC)C(=O)C1CCc2sc3c(c2C1)C(c1ccccc1Cl)=NCc1nnc(C)n1-3 (centres unmarked) . Its IC50 was > 5 µM

Entry under test: Cc1nnc2n1-c1sc3c(c1C(c1ccccc1Cl)=NC2)CC(CN1CCOCC1)CC3 (centres unmarked) . Its IC50 was > 5 µM

Entry under test: CCN(CC)C(=O)C1CCc2c(sc3c2C(c2ccccc2Cl)=NCc2nnc(C)n2-3)C1 (centres unmarked) . Its IC50 was > 5 µM

Entry under test: CC(=O)OCC1CCc2sc3c(c2C1)C(c1ccccc1Cl)=NCc1nnc(C)n1-3 (centres unmarked) . Its IC50 was 4.6 µM

Entry under test: Cc1nnc2n1-c1sc3c(c1C(c1ccccc1Cl)=NC2)CCNC3 [Compound (B), reference compound] . Its IC50 was 0.035 µM

Entry under test: Cc1nnc2n1-c1sc3c(c1C(c1ccccc1Cl)=NC2)CC(C(=O)N1CCOCC1)CC3 (centres unmarked) . Its IC50 was > 5 µM

Entry under test: Cc1nnc2n1-c1sc3c(c1C(c1ccccc1Cl)=NC2)CC(C(=O)N1CCOCC1)C3 (centres unmarked) . Its IC50 was 3.6 µM

Entry under test: "CC(=O)NCC(=O)N1CCc2c(sc3c2C(c2ccccc2Cl)=NCc2nnc(C)n2-3)C1" . Its IC50 was > 5 µM

----------
# Tested on: PAF-induced aggregation of human thrombocytes
# method-description: PAF-induced aggregation of human thrombocytes in vitro (inhibition of blood platelet aggregation)
# Assay type: cell-based
# test-parameters: Homo sapiens, read-out: IC50 value PAF
Kindly state IC50 for each of the entries shown.

Entry under test: "CC(=S)N1CCc2c(sc3c2C(c2ccccc2Cl)=NCc2nnc(C)n2-3)C1" . Its IC50 was 1000 nM

Entry under test: Cc1nnc2n1-c1sc3c(c1C(c1ccccc1Cl)=NC2)CCNC3 [Compound (B), reference compound] . Its IC50 was < 7000 nM

Entry under test: Cc1nnc2n1-c1sc3c(c1C(c1ccccc1Cl)=NC2)CCCC3 [Compound (A), reference compound] . Its IC50 was < 2500 nM
